# method-notes: Liver stability (liver homogenate)
# Format: in vitro ADME, mouse
# measurement-setup: mouse, liver homogenate, liver, two phase decay, fast; read-out: t1/2 (h) (fast) (converted)
Where a SMILES comes first, the peptide text is derived from it. The star is where a group is joined. Myristoyl = CCCCCCCCCCCCCC(=O)*
measured-property: half-life (h)
Numbers only, in h.

Task: I would be grateful if you could share the reported half-life for CCCCCCCCCCCCCC(=O)N[C@@H](CCC(N)=O)C(=O)N[C@@H](Cc1c[nH]cn1)C(=O)N[C@H](C(=O)N[C@@H](CCC(N)=O)C(=O)N[C@H](C(=O)N[C@H](C(=O)N[C@@H](CCCCN)C(=O)N[C@H](C(=O)O)C(C)C)[C@@H](C)O)[C@@H](C)CC)[C@@H](C)O (Myristoyl-QHTQITKV-OH; C-terminus assumed) .
Result: 0.227
